These entries and their values trace back to ChEMBL document CHEMBL3132815.

tested on: Staphylococcus aureus; assay: Antibacterial activity against methicillin-resistant Staphylococcus aureus assessed as planktonic growth at 50 ug/ml; format: organism-based; conditions: in vitro
QUANTITY KIND: Activity (%)

O=C(NCC(=O)c1cnc2ncccn12)c1cc(Br)c[nH]1 ... -6.08
O=C(NCCC(=O)c1cnc2ncccn12)c1cc(Br)c(Br)[nH]1 ... -1.91
O=C(NCC(O)c1cnc2ncccn12)c1cc(Br)c[nH]1 (centres undefined) ... -6.08
O=C(NC/C=C/c1cnc2ncccn12)c1ccc[nH]1 ... 5

* * *

system: Pseudomonas aeruginosa; test: Antibacterial activity against Pseudomonas aeruginosa PAO1 assessed as planktonic growth at 50 ug/ml; format: organism-based
QUANTITY KIND: Activity (%)

Nc1nc(C(=O)CCNC(=O)c2cc(Br)c(Br)[nH]2)c[nH]1 ... 6.46
Nc1ncc(C(=O)CCNC(=O)c2ccc[nH]2)[nH]1 ... 86.17
Nc1ncc(C(=O)CCNC(=O)c2cc(Br)c[nH]2)[nH]1 ... 32.69
O=C(NCCC(O)c1cnc2ncccn12)c1ccc[nH]1 (stereo not drawn) ... -19.1
O=C(NCC(O)c1cnc2ncccn12)c1cc(Br)c(Br)[nH]1 (stereo not drawn) ... -13.02
O=C(CN1C(=O)c2ccccc2C1=O)c1cnc2ncccn12 ... -0.69
O=C(NCCC(O)c1cnc2ncccn12)c1cc(Br)c(Br)[nH]1 (stereo not drawn) ... 14.1
O=C(NCCC(=O)c1cnc2ncccn12)c1ccc[nH]1 ... -15.89
O=C(NC/C=C/c1cnc2ncccn12)c1ccc[nH]1 ... 14.6
O=C(NCC(O)c1cnc2ncccn12)c1cc(Br)c[nH]1 (stereo not drawn) ... -14.84
O=C(NCCC(O)c1cnc2ncccn12)c1cc(Br)c[nH]1 (stereo not drawn) ... 17.1
O=C(NC/C=C/c1cnc2ncccn12)c1cc(Br)c(Br)[nH]1 ... 11.6
O=C(NC/C=C/c1cnc2ncccn12)c1cc(Br)c[nH]1 ... -19.9
